Form field: GI50 (one value per entry).
# Tested on: COLO 205
# test: NCI tumour cell line growth inhibition, 48 h
Activity calls are given as the source filed them. No stated cut-off is given here; in the data, active = GI50 up to about 1.1 µM and inactive = higher.
metric: GI50

1) CN(CCCNCc1ccccn1)Cc1ccccc1O = 29 µM (inactive)
2) CN(C)CCN1C(=O)c2ccccc2C1(O)c1ccc(Cl)cc1 (stereo not given) = > 100 µM (inactive)
3) O=C1C=CC(=O)c2c(O)c(N(CCCl)CCCl)c(Cl)c(O)c21 = 3.94 µM (inactive)
4) O=c1[nH]n(Cc2ccccc2)c2ccc([N+](=O)[O-])cc12 = > 100 µM (inactive)
5) O=C(/C=C/c1ccc2c(c1)OCO2)Cc1nc2ncccc2[nH]c1=O = 70.3 µM (inactive)

---

# System: M19-MEL
# test: NCI tumour cell line growth inhibition, 48 h
Active and inactive are the calls of the source. Cut-off read from the data, not from the text of the source: active = GI50 up to about 1.1 µM and inactive = higher.
Form field: GI50 (one value per entry).
metric: GI50

1. CC(C)=CC(=O)OC1C2C(C)C(=O)OC2C(O)C(C)C2C=CC(=O)C21C (stereo not given) = 3.01 µM (inactive)
2. CCC1(c2ccc(N)cc2)CCC(=O)NC1=O (stereo not given) [AMINOGLUTETHIMIDE] = 2210 µM (inactive)
3. C[P+](C)(C)c1ccccc1 = > 100 µM (inactive)
4. Cc1cc(Cl)ccc1NC(=O)C(=O)Cc1nc2ccc(C(=O)c3ccccc3)cc2nc1O = > 100 µM (inactive)
5. O=C(c1ccccc1)[C@H]1Nc2ccc(Cl)cc2[C@H]2OCCC[C@@H]12 = 23 µM (inactive)
6. Cc1ccc([S+]([O-])c2ccccc2[N+](=O)[O-])cc1 (stereo not given) = 10 µM (inactive)
7. COC1=C(OC)C(O)(c2ccccc2)C1=O (stereo not given) = > 100 µM (inactive)
8. CN1C(c2ccccc2)CC(C)(O)CC1c1ccccc1 (stereo not given) = > 100 µM (inactive)
9. COc1ccc(/C=C/C(=N\NC(=O)c2ccccc2)c2sc(Nc3ccc([N+](=O)[O-])cc3)nc2C)cc1OC = 12.6 µM (inactive)
10. CCOC(OC1=C(C#N)CCCC1)C(CC)[Se]c1ccccc1[N+](=O)[O-] (stereo not given) = 19.1 µM (inactive)

---

# Test system: A498
# test: NCI tumour cell line growth inhibition, 48 h
Calls of active or inactive are those of the source. No stated cut-off is given here; in the data, active = GI50 up to about 1.1 µM and inactive = higher.
metric: GI50

1. COc1cc([C@@H]2c3cc4c(cc3[C@@H](/N=C/c3ccc(C(=O)O[C@H]5C[C@H]6OC[C@@]6(OC(C)=O)[C@H]6[C@H](OC(=O)c7ccccc7)[C@]7(O)C[C@H](OC(=O)[C@H](OC(=O)c8ccc(/C=N/[C@@H]9c%10cc%11c(cc%10[C@@H](c%10cc(OC)c(O)c(OC)c%10)[C@H]%10C(=O)OC[C@@H]%109)OCO%11)cc8)[C@@H](NC(=O)c8ccccc8)c8ccccc8)C(C)=C([C@@H](OC(C)=O)C(=O)[C@]56C)C7(C)C)cc3)C3COC(=O)C32)OCO4)cc(C)c1O (stereo partly specified) = 5.16 µM (inactive)

---

Form field: GI50 (one value per entry).
# Test system: SF-268
# test: NCI tumour cell line growth inhibition, 48 h
The source made the active and inactive calls. Rule as the data show it: active = GI50 up to about 1.1 µM and inactive = higher.
metric: GI50

1. C/C(CC(=O)Nc1cccc([N+](=O)[O-])c1)=N\NC(=O)C[n+]1ccccc1 = > 100 µM (inactive)
2. COc1cc(S(=O)(=O)Nc2ccc(-c3csc(/N=C\c4ccccc4)n3)cc2)ccc1Cl = 32 µM (inactive)
3. Cc1ccc(C)n1-c1ccccc1C1SCCCS1 = > 100 µM (inactive)
4. CN1CCCC(OC(=O)c2cc3cc(CCl)ccc3oc2=O)C1 (configuration not stated) = 21.7 µM (inactive)
5. N#Cc1nc(C(CO)N(Cc2ccccc2)C(=O)O)oc1N (configuration not stated) = > 100 µM (inactive)
6. O=C1c2c(ccc3c2CCCC3)CC12Cc1ccccc1C2 = 43.2 µM (inactive)
7. c1ccc(C2=Nn3c(CCCCCCCCc4nnc5n4N=C(c4ccccc4)CS5)nnc3SC2)cc1 = 23.1 µM (inactive)
8. COc1ccc(S(=O)(=O)N/N=C(\C)CN2C(=O)c3ccccc3C2=O)cc1 = > 100 µM (inactive)
9. O=S(=O)(NC1CCCCC1)c1ccc2c(c1)OCCOCCOCCOCCO2 = > 100 µM (inactive)
10. CCn1cc(C(=O)O)c(=O)c2cc(F)c(N3CCN(CN4C(=O)/C(=N\c5ncc(Cc6cc(OC)c(OC)c(OC)c6)c(N)n5)c5cc(Cl)ccc54)CC3)cc21 = > 100 µM (inactive)
11. C/C(=N\N(C)C)c1sc(-n2nc(-c3ccccc3)cc2-c2ccccc2)nc1C = > 100 µM (inactive)
12. S=C(Nc1cc(Cl)c(Cl)cc1Cl)SCc1ccccc1 = 38.1 µM (inactive)
13. CCNc1nc2ccccc2nc1NCC = > 100 µM (inactive)
14. CSc1cc(N)ccc1/N=N/c1ccc(S(N)(=O)=O)cc1 = 37.8 µM (inactive)
15. COc1cc(C2c3cc4c(cc3[C@@H](Nc3ccc(C#N)cc3)C3COC(=O)[C@H]23)OCO4)cc(OC)c1O (some centres not stated) = 2.43 µM (inactive)
16. CN(C)CCC(/C=C/c1ccccc1)=N\Nc1c(F)c(F)c(F)c(F)c1F = > 100 µM (inactive)
17. C=C(C)C1CC=C(C)C(=O)C1 (configuration not stated) = > 100 µM (inactive)
18. Nc1cc(Cl)cc2cc(Cl)cnc12 = 82.6 µM (inactive)
19. COc1ccc(CNc2nc3ccccc3nc2C(=O)O)cc1OC = > 100 µM (inactive)
20. O=[N+]([O-])c1cccc(/C=N\NS(=O)(=O)c2ccc(Cl)cc2)c1O = > 100 µM (inactive)
21. COc1ccccc1NC(=S)Nc1cccc(C)n1 = 18.4 µM (inactive)
22. CN1N=C(c2ccncc2)OC1c1ccc(C(F)(F)F)cc1 (configuration not stated) = > 100 µM (inactive)
23. CN(C)C1=NC2=S(SC(Nc3ccccc3)=N2)S1 (configuration not stated) = 34.5 µM (inactive)
24. O=P(Nc1cccc(Cl)c1)(Oc1ccccc1)N(CCCl)CCCl (configuration not stated) = 15.1 µM (inactive)
25. O=C(CNc1ccccc1Cl)Nn1c(-c2ccccc2)nc2ccccc2c1=O = 30.1 µM (inactive)
26. Cc1nc2ccc(NCCN(C)C)c3c(=O)c4ccccc4n1c23 = 3.48 µM (inactive)
27. O=C1CSC2=NC3=C(COC/C3=C\c3ccc(F)cc3)C(c3ccc(F)cc3)N12 (configuration not stated) = > 100 µM (inactive)
28. COC1=CC2(C=CC1=O)CCNC1=C2C(=O)c2nc[nH]c2C1=O (configuration not stated) = > 100 µM (inactive)
29. COc1cccc(CCn2c(N)c(-c3ccccc3)c3ccc([N+](=O)[O-])cc3c2=O)c1 = 16.2 µM (inactive)
30. COc1cc([C@@H]2c3cc4c(cc3[C@@H](/N=C/c3ccc(C(=O)O[C@H]5C[C@H]6OC[C@@]6(OC(C)=O)[C@H]6[C@H](OC(=O)c7ccccc7)[C@]7(O)C[C@H](OC(=O)[C@H](OC(=O)c8ccc(/C=N/[C@@H]9c%10cc%11c(cc%10[C@@H](c%10cc(OC)c(O)c(OC)c%10)[C@H]%10C(=O)OC[C@@H]%109)OCO%11)cc8)[C@@H](NC(=O)c8ccccc8)c8ccccc8)C(C)=C([C@@H](OC(C)=O)C(=O)[C@]56C)C7(C)C)cc3)C3COC(=O)C32)OCO4)cc(C)c1O (some centres not stated) = > 31.5 µM (inactive)
31. CN(C(=O)c1ccc(Cl)s1)C(=S)N(C)C(=O)c1ccc(Cl)s1 = > 10 µM (inactive)
32. CCOCc1c(C)cc(C)c(C2C(C(=O)c3ccccc3)N3c4ccccc4C=CC3C2(C#N)C(=O)OCC)c1C (configuration not stated) = 53.8 µM (inactive)
33. CS(=O)(=O)C1S(=O)(=O)OCCOS1(=O)=O = > 100 µM (inactive)
34. Oc1cccc(-c2ccc3c4c2O[C@H]2c5[nH]c6ccccc6c5C[C@@]5(O)[C@@H](C3)N(CC3CC3)CC[C@]425)c1 = 1.68 µM (inactive)
35. Clc1cc(-c2ccccc2)nc(Nc2nc3ccccc3[nH]2)n1 = 23.6 µM (inactive)
36. C=C1C(O)CC[C@]2(C)C1C1OC(C)(C)O[C@]13CC(=O)C(C)=C([C@H]1OC(C)(C)OC12)C3(C)C (some centres not stated) = > 100 µM (inactive)
37. O=[N+]([O-])c1cccc(-c2oc(/C=N/c3ccccc3)c([N+](=O)[O-])c2-c2cccc([N+](=O)[O-])c2)c1 = > 100 µM (inactive)
38. ClC1=NN=C(c2c[nH]c3ccccc23)CC1NCc1ccccc1 (configuration not stated) = > 100 µM (inactive)
39. COc1ccc(/C=C/C(=N\NC(=O)c2ccccc2)c2sc(Nc3ccc([N+](=O)[O-])cc3)nc2C)cc1OC = 13.2 µM (inactive)
40. COC(=O)C(Cc1ccccc1)NP(=O)(O)OCC1OC(n2cc(F)c(=O)[nH]c2=O)CC1O (configuration not stated) = 1.75 µM (inactive)
41. O=C(O)C(CS)Nc1c2ccccc2nc2ccccc12 (configuration not stated) = > 100 µM (inactive)
42. COc1ccc(-c2cc(-c3cc(F)c(Cl)cc3Cl)on2)cc1OC = 34 µM (inactive)
